- target: human ether-à-go-go-related gene (hERG) potassium channel (human, UniProt Q12809);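 note: peak tail current of the secondary pulse compared with the same well before compound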
- Sequence (Q12809 whole entry, looked up): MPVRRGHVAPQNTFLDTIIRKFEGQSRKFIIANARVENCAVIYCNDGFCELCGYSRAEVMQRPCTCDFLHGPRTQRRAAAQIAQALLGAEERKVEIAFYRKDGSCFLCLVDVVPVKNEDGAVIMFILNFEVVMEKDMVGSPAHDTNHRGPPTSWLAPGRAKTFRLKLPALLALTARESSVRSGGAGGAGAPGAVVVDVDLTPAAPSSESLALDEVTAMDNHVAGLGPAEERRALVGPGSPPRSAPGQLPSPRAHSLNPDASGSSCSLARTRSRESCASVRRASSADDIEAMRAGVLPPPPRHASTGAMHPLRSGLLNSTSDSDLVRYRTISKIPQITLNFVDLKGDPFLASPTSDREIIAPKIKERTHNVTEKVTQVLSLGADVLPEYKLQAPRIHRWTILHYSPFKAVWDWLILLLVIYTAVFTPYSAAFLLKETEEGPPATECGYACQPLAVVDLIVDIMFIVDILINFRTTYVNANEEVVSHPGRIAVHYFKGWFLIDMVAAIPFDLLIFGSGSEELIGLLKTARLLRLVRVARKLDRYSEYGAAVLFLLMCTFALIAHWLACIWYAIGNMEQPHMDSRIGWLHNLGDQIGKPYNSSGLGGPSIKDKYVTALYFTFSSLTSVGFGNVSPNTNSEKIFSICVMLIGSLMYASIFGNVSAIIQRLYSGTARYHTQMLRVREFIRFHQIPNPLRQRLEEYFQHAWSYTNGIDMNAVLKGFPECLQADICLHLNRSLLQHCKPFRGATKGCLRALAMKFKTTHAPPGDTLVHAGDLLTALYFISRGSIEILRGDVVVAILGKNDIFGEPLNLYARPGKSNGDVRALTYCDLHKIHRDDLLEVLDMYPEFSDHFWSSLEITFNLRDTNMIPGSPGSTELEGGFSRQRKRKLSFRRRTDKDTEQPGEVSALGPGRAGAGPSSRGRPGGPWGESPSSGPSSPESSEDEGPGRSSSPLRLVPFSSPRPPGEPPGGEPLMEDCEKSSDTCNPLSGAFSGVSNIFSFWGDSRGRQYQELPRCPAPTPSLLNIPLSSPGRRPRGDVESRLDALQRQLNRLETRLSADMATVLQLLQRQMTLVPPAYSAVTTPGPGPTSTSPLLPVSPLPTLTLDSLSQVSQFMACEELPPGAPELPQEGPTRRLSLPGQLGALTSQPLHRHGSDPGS
- measurementDescription: primary screen, population patch clamp on CHO cells stably expressing hERG; higher = less effect of the substance
The whole screen tested about 310,000 compounds, of which about 14,000 (4.5%) showed an effect of 50% or more. Effects have a minus sign here. The entries come from a sample that favours strong results as a whole.
For each record, write down the corresponding hERG current change (%, negative = inhibition) at 10uM.
Could you give me the number in %? Just the number is fine.

Request: Dear colleague, I am looking for the recorded hERG current change (%, negative = inhibition) at 10uM of the following compound: `O=C(CN1CCC(c2nc3ccccc3[nH]2)CC1)Nc1ccc2c(c1)OCO2`
Response: -53.1

Request: For `Cc1ccc2nc(SCC(=O)Nc3ccc4c(c3)OCCO4)[nH]c2c1` then?
Response: 4.73

Request: For `Cc1cc(NC(=O)c2ccccc2)n(-c2ccccc2)n1` then?
Response: 30.8

Request: For `Cc1cc(NC(=O)c2cnn3cccnc23)n(-c2ccccc2)n1` then?
Response: -61.8

Request: For `O=C(CN1CCC(c2nc3ccccc3[nH]2)CC1)NCc1ccc2c(c1)OCO2` then?
Response: -84.3

Request: For `Cc1ccc(CC(=O)NCCc2ccc(S(N)(=O)=O)cc2)cc1` then?
Response: 5.87

Request: For `CC(C)N(C(=O)CN1CCC(c2nc3ccccc3[nH]2)CC1)C(C)C` then?
Response: -4.13

Request: For `CCCCN(C)C(=O)C1CCN(Cc2cccnc2)CC1` then?
Response: 9.71

Request: For `Cc1c(NC(=O)c2cnn3cccnc23)c(=O)n(-c2ccccc2)n1C` then?
Response: 4.45

###

- target: human ether-à-go-go-related gene (hERG) potassium channel (human);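 note: peak tail current of the secondary pulse compared with the same well before compound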
- measurementDescription: primary screen, population patch clamp on CHO cells stably expressing hERG; higher = less effect of the substance
About 14,000 (4.5%) of roughly 310,000 compounds showed an effect of 50% or more. Effects have a minus sign here. The entries come from a sample that favours strong results as a whole.
reportedProperty: hERG current change (%, negative = inhibition) at 10uM (%)
Could you give me the number in %? Just the number is fine.

Request: Dear colleague, I am looking for the recorded hERG current change (%, negative = inhibition) at 10uM of the following molecule: CC(C)CCN(C(=O)C1CSC2(C)CCC(=O)N12)c1c(N)n(Cc2ccccc2)c(=O)[nH]c1=O (stereo not shown)
Response: 6.21

Request: For `COc1ccc(C(=O)NC2CCN(C(=S)Nc3cccc(C)c3C)CC2)cc1` then?
Response: 0.204

Request: For `COc1cccc(-c2csc(N3CCN(Cc4ccccc4)CC3)n2)c1` then?
Response: 0.166

Request: For `O=C(CCc1ccccc1)NNC(=O)Cc1ccc(Cl)cc1` then?
Response: 13.1

Request: For `CC(/C=N/NC(=O)c1c(Br)cnn1C)=C\c1ccccc1` then?
Response: -13

Request: For `CCOC(=O)[C@@H]1[C@H]2COc3ccccc3[C@@H]2N2C(=O)N(c3ccccc3)C(=O)[C@@]12C` then?
Response: 11.4

Request: For COc1ccc(CN2CCN(Cc3cc4ccccc4o3)CC2CCO)cc1C (stereo not shown) then?
Response: -40.4

Request: For `CCOc1ccc2[nH]c3c(N4CCc5ccccc5C4)ncnc3c2c1` then?
Response: 5.49

Request: For `Cc1ccc2c(c1)cc(CN(Cc1ccc3c(c1)OCO3)C(=O)c1cnccn1)c1nnnn12` then?
Response: -45.7

Request: For CCN(CC)CC(C)CNC(=O)C1(O)c2ccccc2NC(=O)N1c1ccc(Cl)c(Cl)c1 (stereo not shown) then?
Response: 3.31

Request: For CC(Nc1ccc(Cl)cc1)C(=O)NN (stereo not shown) then?
Response: -5.86

Request: For Cc1ccc(C2CC2C(=O)NNC(=S)Nc2cccc(Cl)c2)cc1 (stereo not shown) then?
Response: -4.44

Request: For `CC(/C=N/NC(=O)c1nn(C)c(C)c1Br)=C\c1ccccc1` then?
Response: -53.8

Request: For O=C(Nc1nc(-c2ccc(Cl)cc2Cl)cs1)c1ccc(OCC2CCCO2)cc1 (stereo not shown) then?
Response: 6.82

Request: For `COc1cc2[nH]c3c(N4CCN(c5ccccn5)CC4)ncnc3c2cc1OC` then?
Response: 13.1

Request: For `O=C(c1ccco1)N1CCN(c2ncnc3c(-c4ccc(Cl)cc4)nsc23)CC1` then?
Response: 4.82

Request: For `OCC1(Cc2ccccc2)CCN(Cc2cc3ccccc3o2)CC1` then?
Response: -51.7

Request: For `O=C(c1ccco1)N1CCN(c2ncnc3c2[nH]c2ccc(Cl)cc23)CC1` then?
Response: -65.2

Request: For `Cc1ccc2c(c1)cc(CN(Cc1cccnc1)C(=O)NCc1ccccc1)c1nnnn12` then?
Response: -75.2

Request: For CC1CCCCN1S(=O)(=O)c1ccc2[nH]c(=O)cc(C(=O)NCCCN3CCCCCC3)c2c1 (stereo not shown) then?
Response: 17

Request: For `Cc1ccc2c(c1)cc(CN(Cc1cccnc1)C(=O)c1ccccc1)c1nnnn12` then?
Response: -78

Request: For `CCn1c(=O)cc(OCC(=O)O)c2ccccc21` then?
Response: 10.6

Request: For `CCOc1ccc2[nH]c3c(N4CCN(C(=O)c5ccco5)CC4)ncnc3c2c1` then?
Response: -58.4

Request: For `Cc1ccc2c(c1)cc(CN(CCc1ccccc1)C(=O)N1CCOCC1)c1nnnn12` then?
Response: -61.3

Request: For `Cc1ccc(C(=O)N(Cc2cccnc2)Cc2cc3cc(C)ccc3n3nnnc23)cc1` then?
Response: -23.8

Request: For `Cc1nc(N2CCN(c3ccccn3)CC2)c2c(C)c(C(=O)Nc3c(F)cc(F)cc3Br)sc2n1` then?
Response: -14.4

Request: For `CC(=C/c1ccccc1)/C=N/NC(=O)c1ccccn1` then?
Response: -30.3

Request: For `CC(/C=N/NC(=O)c1ccccc1F)=C\c1ccccc1` then?
Response: 12.7
